Measured values drawn from patent US11530196B2 for this set.

target: HER2 exon 20 insertion (V777_G778ins > CG) enzyme (Homo sapiens, UniProt P04626, INS777CG); assay: Kinase assay (HTRF KinEASE TK), HER2 exon 20 insertion
Sequence (P04626 with tags, fused parts or gaps INS777CG limits assumed): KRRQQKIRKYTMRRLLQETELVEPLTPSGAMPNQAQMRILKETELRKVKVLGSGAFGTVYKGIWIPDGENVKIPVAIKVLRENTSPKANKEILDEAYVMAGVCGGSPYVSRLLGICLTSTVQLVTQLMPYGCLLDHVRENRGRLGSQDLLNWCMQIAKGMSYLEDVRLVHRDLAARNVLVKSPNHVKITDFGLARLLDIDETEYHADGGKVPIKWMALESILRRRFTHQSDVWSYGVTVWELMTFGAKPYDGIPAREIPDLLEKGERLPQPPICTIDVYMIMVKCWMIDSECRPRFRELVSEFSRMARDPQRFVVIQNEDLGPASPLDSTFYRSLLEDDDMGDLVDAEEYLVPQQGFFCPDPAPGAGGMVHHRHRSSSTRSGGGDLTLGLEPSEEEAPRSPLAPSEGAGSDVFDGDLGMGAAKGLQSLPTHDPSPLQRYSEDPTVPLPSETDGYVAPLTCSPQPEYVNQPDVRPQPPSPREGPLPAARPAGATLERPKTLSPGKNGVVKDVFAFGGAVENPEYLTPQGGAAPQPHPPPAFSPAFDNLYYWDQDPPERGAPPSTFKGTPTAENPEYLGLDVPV
quantity-measured: pIC50
In plain terms, pIC50 is the concentration in mol/L turned into minus its base-10 logarithm.

In plain terms, C=CC(=O)Nc1cc(Nc2ncc(C(=O)OC(C)C)c(-c3cn(OC)c4ccccc34)n2)c(OC)cc1N(C)CCN(C)C.CS(=O)(=O)O has a documented pIC50 of 8.73

* * *

experiment: Pharmacokinetic study, single intravenous and oral administration in mice; assay type: in vivo; conditions: mouse, plasma, oral 10 mg/kg, read-out: Exposure of AUC0-last
quantity-measured: AUC(0-t) (µM·h)
A number alone suffices; assume µM·h.

In plain terms, C=CC(=O)Nc1cc(Nc2ncc(C(=O)OC(C)C)c(-c3cn(OC)c4ccccc34)n2)c(OC)cc1N(C)CCN(C)C.CS(=O)(=O)O has a documented AUC(0-t) of 1.42

* * *

assay: Compound stability test in plasma (mouse); format: in vitro ADME; settings: pH 7.4, 37° C., read-out: In vitro plasma half-life T1/2
quantity-measured: half-life at 2 µM (h)
A number alone suffices; assume h.

In plain terms, C=CC(=O)Nc1cc(Nc2ncc(C(=O)OC(C)C)c(-c3cn(OC)c4ccccc34)n2)c(OC)cc1N(C)CCN(C)C.CS(=O)(=O)O [Compound 1] has a documented half-life at 2 µM of 1.81

* * *

Experiment: Pharmacokinetic study, single intravenous and oral administration in mice
Assay type: in vivo
Conditions: mouse, plasma, intravenous injection 2 mg/kg
Description: The purpose of this experiment was to investigate the pharmacokinetics (PK) of the compounds in different species after single intravenous and single oral administration of the test compounds. After intravenous or oral administration, blood samples were collected from the animals, and the actual time of blood collection was recorded. […]
quantity-measured: clearance

In plain terms, C=CC(=O)Nc1cc(Nc2ncc(C(=O)OC(C)C)c(-c3cn(OC)c4ccccc34)n2)c(OC)cc1N(C)CCN(C)C.CS(=O)(=O)O [Compound 1] has a documented clearance of 57.7 mL/min/kg

* * *

biological target: Ba/F3 EGFR-D770_N771insSVD (Homo sapiens, UniProt P00533, DUP768-770, cells depend on it); assay: Anti-proliferation against Ba/F3 exon 20 insertion mutant cells (SVD); type: cell-based, mouse; details: CTG, 72 hours, read-out: Mutant cells IC50 (anti-proliferation)
Sequence (P00533 with tags, fused parts or gaps DUP768-770): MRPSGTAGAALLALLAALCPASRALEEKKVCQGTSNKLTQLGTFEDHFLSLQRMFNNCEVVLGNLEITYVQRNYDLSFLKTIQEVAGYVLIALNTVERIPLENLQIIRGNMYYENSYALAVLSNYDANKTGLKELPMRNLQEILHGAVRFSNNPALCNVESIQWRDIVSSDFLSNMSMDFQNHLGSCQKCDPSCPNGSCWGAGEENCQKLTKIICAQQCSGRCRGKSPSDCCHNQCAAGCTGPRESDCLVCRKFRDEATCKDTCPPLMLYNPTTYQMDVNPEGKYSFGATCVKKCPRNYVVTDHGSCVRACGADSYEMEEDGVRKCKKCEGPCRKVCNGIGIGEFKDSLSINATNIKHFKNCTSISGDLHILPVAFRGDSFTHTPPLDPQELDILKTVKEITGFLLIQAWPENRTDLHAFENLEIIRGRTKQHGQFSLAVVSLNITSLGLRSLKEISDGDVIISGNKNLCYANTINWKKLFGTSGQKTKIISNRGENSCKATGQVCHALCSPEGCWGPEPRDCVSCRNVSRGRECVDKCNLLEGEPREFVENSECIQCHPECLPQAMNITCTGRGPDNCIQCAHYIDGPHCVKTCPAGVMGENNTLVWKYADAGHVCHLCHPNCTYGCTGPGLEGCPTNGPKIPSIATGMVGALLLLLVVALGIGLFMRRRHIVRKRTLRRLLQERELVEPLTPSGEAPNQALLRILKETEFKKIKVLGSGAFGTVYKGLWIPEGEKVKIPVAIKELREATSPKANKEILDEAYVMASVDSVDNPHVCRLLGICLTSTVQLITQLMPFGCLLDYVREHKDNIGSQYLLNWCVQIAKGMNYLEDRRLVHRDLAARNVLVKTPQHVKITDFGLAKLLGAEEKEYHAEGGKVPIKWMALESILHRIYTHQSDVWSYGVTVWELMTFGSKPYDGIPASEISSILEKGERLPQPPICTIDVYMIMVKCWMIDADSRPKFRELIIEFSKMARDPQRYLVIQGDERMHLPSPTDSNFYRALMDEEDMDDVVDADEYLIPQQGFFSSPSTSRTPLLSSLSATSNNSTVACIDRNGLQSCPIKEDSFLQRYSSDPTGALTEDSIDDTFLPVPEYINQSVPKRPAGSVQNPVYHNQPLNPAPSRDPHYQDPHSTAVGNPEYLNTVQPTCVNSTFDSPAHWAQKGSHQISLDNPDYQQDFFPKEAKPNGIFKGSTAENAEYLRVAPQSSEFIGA
quantity-measured: GI50 (nM)
A number alone suffices; assume nM.

Reading of GI50 for C=CC(=O)Nc1cc(Nc2ncc(C(=O)OC(C)C)c(-c3cn(OC(C)C)c4ccccc34)n2)c(OC)cc1N(C)CCN(C)C [Compound 3] with Ba/F3 EGFR-D770_N771insSVD (Homo sapiens, UniProt P00533, DUP768-770, cells depend on it): 54

Reading of GI50 for C=CC(=O)Nc1cc(Nc2ncc(C(=O)OC(C)C)c(-c3cn(OC)c4c(C5CC5)cccc34)n2)c(OC)cc1N(C)CCN(C)C [Compound 5] with Ba/F3 EGFR-D770_N771insSVD (Homo sapiens, UniProt P00533, DUP768-770, cells depend on it): 58

Reading of GI50 for C=CC(=O)Nc1cc(Nc2ncc(C(=O)OC(C)C)c(-c3cn(OC)c4c(Cl)cccc34)n2)c(OC)cc1N(C)CCN(C)C [Compound 4] with Ba/F3 EGFR-D770_N771insSVD (Homo sapiens, UniProt P00533, DUP768-770, cells depend on it): 33

Reading of GI50 for C=CC(=O)Nc1cc(Nc2ncc(C(=O)OC(C)C)c(-c3cn(OCC)c4ccccc34)n2)c(OC)cc1N(C)CCN(C)C [Compound 2] with Ba/F3 EGFR-D770_N771insSVD (Homo sapiens, UniProt P00533, DUP768-770, cells depend on it): 27
